From: ChEMBL document CHEMBL3045725

Test system: Bacillus pumilus
Assay: Antibacterial activity against Bacillus pumilus assessed as growth inhibition after 24 hr by NCCLS broth microdilution method
Format: functional
endpoint.name: MIC (mg/L)
Expressed in mg/L, but write only the number.

In [3]: df
Out[3]:
                                   molecule  unit_label  observed_result
0  O=C(O)c1cn(C2CC2)c2cc(N3CCNCC3)c(F)cc2c1=O        mg/L             3.12
1  O=C(c1ccncc1)N1N=C(c2ccccc2)CC1c1cn(-c2ccccc2)nc1-c1ccc(F)cc1 (racemic)        mg/L               25
2  COc1ccccc1-c1nn(-c2ccccc2)cc1C1CC(c2ccccc2)=NN1C(=O)c1ccncc1 (racemic)        mg/L             6.25
3  Cc1ccc(-c2nn(-c3ccccc3)cc2C2CC(c3ccccc3)=NN2C(=O)c2ccncc2)cc1 (racemic)        mg/L             12.5

Asked: State measured MIC of the molecule O=C(c1ccncc1)N1N=C(c2ccccc2)CC1c1cn(-c2ccccc2)nc1-c1ccc(Br)cc1 (racemic) with Bacillus pumilus.
Given back: 25

Asked: Please look at COc1ccc(-c2nn(-c3ccccc3)cc2C2CC(c3ccccc3)=NN2C(=O)c2ccncc2)cc1 (racemic) and tell me its recorded MIC on Bacillus pumilus.
Given back: 6.25

Asked: Fill in MIC for O=C(c1ccncc1)N1N=C(c2ccccc2)CC1c1cn(-c2ccccc2)nc1-c1ccccc1 (racemic) tested with Bacillus pumilus.
Given back: 50

Asked: Give MIC for O=C(c1ccncc1)N1N=C(c2ccccc2)CC1c1cn(-c2ccccc2)nc1-c1ccc(Cl)cc1 (racemic) tested on Bacillus pumilus.
Given back: 25
